Reference source: patent USRE47150

Target: T1, human tissue factor pathway inhibitor (TFPI) (human, UniProt P10646 29-304, limits assumed)
T1 construct: bought; also called hTFPI; human TFPI
T1 sequence (looked up): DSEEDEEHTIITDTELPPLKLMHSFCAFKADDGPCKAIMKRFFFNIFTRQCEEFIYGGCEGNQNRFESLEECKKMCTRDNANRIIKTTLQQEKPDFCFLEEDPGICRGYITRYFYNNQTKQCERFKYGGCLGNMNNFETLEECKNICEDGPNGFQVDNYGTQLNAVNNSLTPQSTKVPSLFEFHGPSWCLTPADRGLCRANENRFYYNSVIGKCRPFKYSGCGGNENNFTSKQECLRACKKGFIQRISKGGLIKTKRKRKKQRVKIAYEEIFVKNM
Assay: competitive ELISA
property: variant/wild-type (ratio)
Quick reminder: number only, in ratio, skip the unit.

Some solved cases for reference:
1. 4B7 LC_Y37F (Fab, V domains shown) VH: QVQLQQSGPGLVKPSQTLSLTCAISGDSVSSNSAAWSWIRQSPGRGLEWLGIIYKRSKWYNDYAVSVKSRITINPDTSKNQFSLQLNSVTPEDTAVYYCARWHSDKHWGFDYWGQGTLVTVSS VL: DIVMTQSPLSLPVTPGEPASISCRSSQSLVFSDGNTFLNWYLQKPGQSPQLLIYKGSNRASGVPDRFSGSGSGTDFTLKISRVEAEDVGVYYCQQYDSYPLTFGQGTKVEIKR	3.6
2. 4B7 HC_S57K (Fab, V domains shown) VH: QVQLQQSGPGLVKPSQTLSLTCAISGDSVSSNSAAWSWIRQSPGRGLEWLGIIYKRKKWYNDYAVSVKSRITINPDTSKNQFSLQLNSVTPEDTAVYYCARWHSDKHWGFDYWGQGTLVTVSS VL: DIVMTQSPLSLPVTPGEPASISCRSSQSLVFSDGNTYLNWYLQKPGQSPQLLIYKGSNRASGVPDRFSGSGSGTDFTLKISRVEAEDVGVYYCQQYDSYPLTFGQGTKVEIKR	1.7

Please turn your attention to the following entry.
Challenge: Return reported variant/wild-type; argument: 4B7 HC_N61G (Fab, V domains shown) VH: QVQLQQSGPGLVKPSQTLSLTCAISGDSVSSNSAAWSWIRQSPGRGLEWLGIIYKRSKWYGDYAVSVKSRITINPDTSKNQFSLQLNSVTPEDTAVYYCARWHSDKHWGFDYWGQGTLVTVSS VL: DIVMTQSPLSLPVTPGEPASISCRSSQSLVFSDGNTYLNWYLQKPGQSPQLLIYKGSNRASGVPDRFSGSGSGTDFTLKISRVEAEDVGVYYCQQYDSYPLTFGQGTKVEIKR
Response given: 2.2
